- TARGET_ENTITY: T1, human IL-36R (human, UniProt Q9HB29 20-575)
- T1 sequence (looked up): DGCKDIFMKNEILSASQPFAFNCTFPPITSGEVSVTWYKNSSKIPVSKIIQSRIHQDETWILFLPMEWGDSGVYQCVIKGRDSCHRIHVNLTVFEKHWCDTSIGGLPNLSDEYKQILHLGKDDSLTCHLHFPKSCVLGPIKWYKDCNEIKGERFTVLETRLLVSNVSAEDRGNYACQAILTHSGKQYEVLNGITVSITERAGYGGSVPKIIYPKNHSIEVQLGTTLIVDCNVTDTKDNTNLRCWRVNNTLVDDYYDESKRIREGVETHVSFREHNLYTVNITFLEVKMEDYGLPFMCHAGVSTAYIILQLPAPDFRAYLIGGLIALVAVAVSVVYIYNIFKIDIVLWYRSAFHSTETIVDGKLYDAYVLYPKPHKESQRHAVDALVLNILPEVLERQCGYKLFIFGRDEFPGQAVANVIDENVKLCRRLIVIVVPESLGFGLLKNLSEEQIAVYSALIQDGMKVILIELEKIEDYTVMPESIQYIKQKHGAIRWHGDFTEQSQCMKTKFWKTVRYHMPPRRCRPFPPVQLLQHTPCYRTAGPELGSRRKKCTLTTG
- ASSAY_SUMMARY: cell-based or functional assay
In this section, each of the binders is paired with its reported IC50 of GM-CSF release, NCI/ADR-RES cells stimulated with IL-36α.
Enter your answer as a number in µg/mL; do not include the unit.

Solved entries:
| BINDER | REPORTED_VALUE |
| --- | --- |
| anti-IL-36R chimeric antibody 900497 (antibody, V domains shown, Human-mouse chimera: human IgG1 heavy constant region with L234A and L235A (Eu numbering), human kappa light constant region) VH: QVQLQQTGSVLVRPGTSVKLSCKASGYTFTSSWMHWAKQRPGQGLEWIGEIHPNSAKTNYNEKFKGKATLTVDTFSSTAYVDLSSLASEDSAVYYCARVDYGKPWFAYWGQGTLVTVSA VL: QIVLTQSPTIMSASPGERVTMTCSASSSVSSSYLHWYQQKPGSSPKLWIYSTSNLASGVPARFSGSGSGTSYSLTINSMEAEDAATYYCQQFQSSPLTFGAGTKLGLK | 0.0328 |
| humanized anti-IL-36R antibody 900527 (antibody, V domains shown, IgG1 (vector with L234A, L235A) and human kappa) VH: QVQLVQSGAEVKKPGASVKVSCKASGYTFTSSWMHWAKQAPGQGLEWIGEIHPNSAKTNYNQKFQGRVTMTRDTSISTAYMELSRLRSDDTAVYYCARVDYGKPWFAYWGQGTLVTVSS VL: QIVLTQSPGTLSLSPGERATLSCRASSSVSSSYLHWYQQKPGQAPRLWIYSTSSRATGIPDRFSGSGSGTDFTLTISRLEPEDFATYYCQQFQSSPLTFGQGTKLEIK | 0.022 |

Here is another binder to look at.
Ask | Consider the binder humanized anti-IL-36R antibody 900513 (antibody, V domains shown, IgG1 (vector with L234A, L235A) and human kappa) VH: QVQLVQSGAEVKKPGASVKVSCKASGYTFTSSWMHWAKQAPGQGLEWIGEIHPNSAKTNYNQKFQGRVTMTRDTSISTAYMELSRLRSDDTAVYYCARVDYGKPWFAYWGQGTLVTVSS VL: EIVLTQSPGTLSLSPGERATLSCSASSSVSSSYLHWYQQKPGQAPRLWIYSTSNRATGIPDRFSGSGSGTDFTLTISRLEPEDFATYYCQQFQSSPLTFGQGTKLEIK . State its measured IC50 of GM-CSF release, NCI/ADR-RES cells stimulated with IL-36α.
Reply | 0.0206

Entry source: patent EP4289863A9
